Cited source: patent US20190177431A1

# EXPERIMENTAL_TARGET: T1, extracellular domain of human TF protein (human, UniProt P13726 34-251)
# T1 construct: range 34-251; Limits 34-251 are stated for the immunogen; also called the extracellular domain protein of TF; TF antigen
# ASSAY_DETAILS: ELISA, coated TF extracellular domain
MEASURED_QUANTITY: pEC50
FYI, pEC50 means -log10 of a concentration in mol per litre.

Record excerpt, results attached:
TF-mAb-H33 (antibody, V domains shown, Humanized) VH: QVQLVQSGSELKKPGASVKVSCKASGYSFISYWMNWVRQAPGQGLEWIGMIYPADSETRLNQKFKDRAVLSVDKSVSTAYLQICSLKAEDTAVYYCAREDYGSSDYWGQGTTVTVSS VL: EIVLTQSPATLSLSPGERATLSCSASSSVSYMNWYQQKPGQAPRIWIYGISNLASGIPARFSGSGSGTDFTLTISSLEPEDFAVYYCQQKSSFPWTFGGGTKVEIK    10.72
TF-mAb-H32 (antibody, V domains shown, Humanized) VH: QVQLVQSGAEVKKPGASVKVSCKASGYSFISYWMNWVRQAPGQGLEWIGMIYPADSETRLNQKFKDRATLTVDKSTSTAYMELSSLRSEDTAVYYCAREDYGSSDYWGQGTTVTVSS VL: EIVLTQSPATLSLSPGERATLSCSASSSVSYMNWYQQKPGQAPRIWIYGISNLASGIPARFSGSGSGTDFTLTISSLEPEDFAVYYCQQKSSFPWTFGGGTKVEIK    10.77
TF-mAb-H42 (antibody, V domains shown, Humanized) VH: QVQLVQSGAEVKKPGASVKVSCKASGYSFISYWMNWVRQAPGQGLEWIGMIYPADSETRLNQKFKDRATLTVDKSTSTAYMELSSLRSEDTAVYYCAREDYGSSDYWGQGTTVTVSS VL: DIQLTQSPSSLSASVGDRVTITCSASSSVSYMNWYQQKPGKSPKIWIYGISNLASGVPSRFSGSGSGTDFTLTISSLQPEDFATYYCQQKSSFPWTFGGGTKVEIK    10.89

In the following, a different binder is considered.
[ask] Can you share its pEC50? I mean this binder: TF-mAb-H35 (antibody, V domains shown, Humanized) VH: EVQLVQSGAEVKKPGESLKISCKGSGYSFTSYWMNWVRQMPGKGLEWMGMIYPADSETRLNQKFKDKATLSVDKSISTAYLQWSSLKASDTAMYYCAREDYGSSDYWGQGTTVTVSS VL: EIVLTQSPATLSLSPGERATLSCSASSSVSYMNWYQQKPGQSPRIWIYGISNLASGVPARFSGSGSGTDFTLTISSLEPEDFAVYYCQQKSSFPWTFGGGTKVEIK
[reply] 10.98
